Assay: log P determination by HPLC (EEC Directive 79/831 Annex V.A8, gradient method)
Type: physicochemical
Settings: HPLC gradient method, acetonitrile/0.1% strength aqueous phosphoric acid or formic acid; preparation examples; read-out: log P

| Compound | chromatographic logP |
| --- | --- |
| O=C(O)/C=C/c1c(-c2ccc(Cl)cc2Cl)nc2sc(C(F)(F)F)nn12 | 3.15 |
| CSC[C@H](C)NC(=O)/C=C/c1c(-c2ccc(Cl)cc2Cl)nc2sc(C(F)(F)F)nn12 | 3.91 |
| C[C@@H](C[S+](C)[O-])NC(=O)/C=C/c1c(-c2ccc(Cl)cc2Cl)nc2sc(C(F)(F)F)nn12 (stereo partly shown) | 2.48 |
| C[C@@H](CS(C)(=O)=O)NC(=O)/C=C/c1c(-c2ccc(Cl)cc2Cl)nc2sc(C(F)(F)F)nn12 | 3.03 |

----------
The entries below are paired with their reported Physical data: logP.
Assay: log P determination by HPLC (EEC Directive 79/831 Annex V.A8, gradient method)
Format: physicochemical
Endpoint Name: Physical data: logP

| Compound | Endpoint Name | Result |
| --- | --- | --- |
| CC(C)NC(=O)/C=C/c1c(-c2nccs2)nc2sc(C(F)(F)C(F)(F)F)nn12 | Physical data: logP | 3.27 |
| CC(C)(C)CNC(=O)/C=C/c1c(-c2ccccc2Cl)nc2sc(C(C)(C)C)nn12 | Physical data: logP | 4.06 |
| O=C(/C=C/c1c(-c2ccccc2Cl)nc2sc(-c3ccc(C(F)(F)F)cc3)nn12)NC1CCC(C(F)(F)F)CC1 (stereo not shown) | Physical data: logP | 4.86 |
| O=C(/C=C/c1c(-c2ccc(F)cc2Cl)nc2sc(C(F)(F)F)nn12)NCCCC(F)(F)F | Physical data: logP | 3.75 |
| Cc1cn2c(/C=C/C(=O)NC3CCCCC3)c(-c3ccccc3Cl)nc2s1 | Physical data: logP | 3.05 |
| CCC(NC(=O)/C=C/c1c(-c2ccc(OC)c(OC)c2)nc2sc(C(F)(F)F)nn12)C1CCCCC1 (stereo not shown) | Physical data: logP | 4.46 |
| O=C(/C=C/c1c(-c2ccccc2Cl)nc2sc(-c3ccc(C(F)(F)F)cc3)nn12)NC1CCCCC1 | Physical data: logP | 4.76 |
| CC(C)(C)c1nn2c(/C=C/C(=O)NC3CCCC3)c(-c3ccccc3Cl)nc2s1 | Physical data: logP | 4.12 |
| COc1ccc(-c2nc3sc(C(F)(F)F)nn3c2/C=C/C(=O)NC2CCCCC2)cc1OC | Physical data: logP | 3.55 |
| COCc1nn2c(/C=C/C(=O)NC3CCCC3)c(-c3ccccc3Cl)nc2s1 | Physical data: logP | 2.8 |
| CC(C)NC(=O)/C=C/c1c(-c2ccc(F)cc2Cl)nc2sc(C(F)(F)C(F)(F)F)nn12 | Physical data: logP | 3.79 |
| Cc1csc2nc(-c3ccccc3Cl)c(/C=C/C(=O)NC3CC3)n12 | Physical data: logP | 1.94 |
| CC(C)(C)c1nn2c(/C=C/C(=O)NC3CC3)c(-c3ccccc3Cl)nc2s1 | Physical data: logP | 3.07 |
| COc1ccc(-c2nc3sc(C(F)(F)F)nn3c2/C=C/C(=O)NC(C)COc2ccccc2)cc1OC (stereo not shown) | Physical data: logP | 3.72 |
| CC(C)NC(=O)/C=C/c1c(-c2ccccc2Cl)nc2sc(C(C)(C)C)nn12 | Physical data: logP | 3.33 |
| O=C(/C=C/c1c(-c2ccccc2Cl)nc2sc(-c3ccc(C(F)(F)F)cc3)nn12)Nc1ccc(C(F)(F)F)cc1 | Physical data: logP | 5.61 |

----------
Assay: log P determination by HPLC (EEC Directive 79/831 Annex V.A8, gradient method)
Type: physicochemical
Lab note: compare Physical data: logP with 3, writing class 1 if less and class 0 if equal or more.

| Molecule | Answer Label |
| --- | --- |
| CCC(C)NC(=O)/C=C/c1c(-c2ccccc2Cl)nc2sc(C(C)(C)C)nn12 (centres unmarked) | class 0 |
| COCC(C)NC(=O)/C=C/c1c(-c2ccc(OC)c(OC)c2)nc2sc(C(F)(F)F)nn12 (centres unmarked) | class 1 |
| CC(C)(C)c1nn2c(/C=C/C(=O)Nc3ccc(Cl)cc3)c(-c3ccccc3Cl)nc2s1 | class 0 |
| COCc1nn2c(/C=C/C(=O)NCC(C)C)c(-c3ccccc3Cl)nc2s1 | class 1 |
| CCCC(C)NC(=O)/C=C/c1c(-c2ccc(OC)c(OC)c2)nc2sc(C(F)(F)F)nn12 (centres unmarked) | class 0 |
| COCc1nn2c(/C=C/C(=O)NCC(F)(F)F)c(-c3ccccc3Cl)nc2s1 | class 1 |
| COc1ccc(-c2nc3sc(C(F)(F)F)nn3c2/C=C/C(=O)NC(C)C(F)(F)F)cc1OC (centres unmarked) | class 0 |
| CC(C)NC(=O)/C=C/c1c(-c2ccccc2Cl)nc2sc(-c3ccc(C(F)(F)F)cc3)nn12 | class 0 |

----------
Entries and their Physical data: log P values follow.
Assay: log P determination by HPLC (EEC Directive 79/831 Annex V.A8, gradient method)
Type: physicochemical
Endpoint Name: Physical data: log P

| Molecule | Endpoint Name | Result Number |
| --- | --- | --- |
| COCC(C)NC(=O)/C=C/c1c(-c2ccccc2C)nc2sc(C(F)(F)F)nn12 (racemic) [Example 0240] | Physical data: log P | 3.07 |
| CC(NC(=O)/C=C/c1c(-c2cccc(C(F)(F)F)c2)nc2sc(C(F)(F)F)nn12)c1ccccc1 (stereo not drawn) [Example 0402] | Physical data: log P | 4.46 |
| CN(C)C(=O)/C=C/c1c(-c2ccc(Cl)cc2Cl)nc2sc(C(F)(F)F)nn12 [Example 0568] | Physical data: log P | 3.46 |
| CON(C)C(=O)/C=C/c1c(-c2cccc(C(F)(F)F)c2)nc2sc(C(F)(F)F)nn12 [Example 0433] | Physical data: log P | 4.01 |
| Cc1ccccc1-c1nc2sc(C(F)(F)F)nn2c1/C=C/C(=O)N1CCCCC1 [Example 0293] | Physical data: log P | 3.85 |
| CC(C)(C)NC(=O)/C=C/c1c(-c2ccccc2F)nc2sc(C(F)(F)F)nn12 [Example 0444] | Physical data: log P | 3.55 |
| O=C(/C=C/c1c(-c2ccccc2F)nc2sc(C(F)(F)F)nn12)N1CCCCC1 [Example 0506] | Physical data: log P | 3.59 |
| CCN(CC)C(=O)/C=C/c1c(-c2ccccc2C)nc2sc(C(F)(F)F)nn12 [Example 0292] | Physical data: log P | 3.75 |
| O=C(/C=C/c1c(-c2cccc(C(F)(F)F)c2)nc2sc(C(F)(F)F)nn12)NC1CCC1 [Example 0376] | Physical data: log P | 4.03 |
| CC(C)C(C)NC(=O)/C=C/c1c(-c2cccc(C(F)(F)F)c2)nc2sc(C(F)(F)F)nn12 (stereo not drawn) [Example 0387] | Physical data: log P | 4.46 |
| O=C(/C=C/c1c(-c2ccc(F)cc2)nc2sc(C(F)(F)F)nn12)NC1CC1 [Example 0304] | Physical data: log P | 2.95 |
| O=C(/C=C/c1c(-c2ccc(F)cc2)nc2sc(C(F)(F)F)nn12)NC1CCC1 [Example 0305] | Physical data: log P | 3.41 |
| Cc1ccccc1-c1nc2sc(C(F)(F)F)nn2c1/C=C/C(=O)N1CCOCC1 [Example 0294] | Physical data: log P | 2.91 |
| CC(NC(=O)/C=C/c1c(-c2ccc(F)cc2)nc2sc(C(F)(F)F)nn12)c1ccccn1 (stereo not drawn) [Example 0345] | Physical data: log P | 2.45 |
| C=CCN(C)C(=O)/C=C/c1c(-c2ccc(Cl)cc2Cl)nc2sc(C(F)(F)F)nn12 [Example 0570] | Physical data: log P | 4.0 |

----------
Assay: log P determination by HPLC (EEC Directive 79/831 Annex V.A8, gradient method)
Format: physicochemical
Endpoint Name: Physical data: log P

| Compound | Endpoint Name | Result |
| --- | --- | --- |
| O=C(/C=C/c1c(-c2ccccc2Cl)nc2sc(C(F)(F)F)nn12)N1CCCCC1 [Example 0222] | Physical data: log P | 3.76 |
| CCCC(C)NC(=O)/C=C/c1c(-c2ccc(F)cc2)nc2sc(C(F)(F)F)nn12 (stereo not shown) [Example 0310] | Physical data: log P | 3.9 |
| CC(C)C(C)NC(=O)/C=C/c1c(-c2ccc(F)cc2)nc2sc(C(F)(F)F)nn12 (stereo not shown) [Example 0316] | Physical data: log P | 3.81 |
| CCN(C)C(=O)/C=C/c1c(-c2cccc(C(F)(F)F)c2)nc2sc(C(F)(F)F)nn12 [Example 0430] | Physical data: log P | 4.05 |

Numbers sourced from patent US20090118286A1.
